# Test system: PRKG2;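 further: KINOMEscan kinase panel screen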
# cond: concentration: 1 μM, replicates: in singlicate; n = 1
reported.endpoint: %Inh (%)

>>> endpoint_result("Cc1ccccc1-c1cc(-c2c[nH]nc2-c2ccccn2)ccn1 [GW680061]")
0
>>> endpoint_result("Cc1cnc(N)c(/C=C/c2cncc(C(=O)NCCc3ccc(Cl)cc3Cl)c2)c1.Cl [GSK190937]")
16
>>> endpoint_result("COc1ccc(Nc2nccc(N3CCC(NC(=O)C(C)c4ccc(Cl)cc4)C3)n2)cc1 (stereo not shown) [GSK1379735]")
80
>>> endpoint_result("COc1cccc(C2=C(Nc3cc(Cl)c(O)c(Cl)c3)C(=O)NC2=O)c1 [SB-390767]")
0
>>> endpoint_result("Nc1ncnc2occ(-c3ccc4c(c3)CCN4C(=O)Cc3cc(F)ccc3F)c12 [GSK2645446]")
17
>>> endpoint_result("Fc1ccc(-c2nn3cccc(F)c3c2-c2ccncc2)cc1 [GW475620]")
0
>>> endpoint_result("COc1ccc(Nc2nccc(NCCNC(=O)Nc3cc(C)ccc3C)n2)cc1 [GSK1379899]")
0
>>> endpoint_result("Cc1ccc(-c2nc(Nc3ccncc3)c3ccccc3n2)s1 [GSK189015]")
0
>>> endpoint_result("COc1ccc(CSc2nnc(-c3ccc4nccn4c3)o2)cc1C(F)(F)F")
16
>>> endpoint_result("Cc1ccccc1Cn1ccn2c(=O)cc(N3CCOCC3)nc12 [GSK2269905]")
0
>>> endpoint_result("Cc1ccc(NC(=O)c2ccc(Cl)cc2)cc1-c1ccc(C(=O)Nc2ccncc2)cc1 [GSK1398467]")
0
>>> endpoint_result("COc1ccc(-c2coc3ccc(-c4nnc(C)o4)cc23)cc1")
0
>>> endpoint_result("COc1ccc(CSc2nnc(-c3ccc4c(c3)CCO4)o2)cc1")
0
>>> endpoint_result("COc1ccc(CSc2nnc(-c3ccc4ncsc4c3)o2)cc1C(F)(F)F")
0
>>> endpoint_result("CC(=O)c1cccc(NC(=O)NC2CCN(c3ccnc(Nc4ccc(F)cc4)n3)C2)c1 (stereo not shown) [GSK1379710]")
31
>>> endpoint_result("Cn1cncc1-c1cc2c(Nc3ccc(OCc4ccccc4)cc3)ncnc2cn1 [GW281179]")
100
>>> endpoint_result("Cc1nccc(-c2c(-c3ccc(F)cc3)ncn2CCCN2CCOCC2)n1.Cl [SB-282975]")
26
>>> endpoint_result("CNc1nc(-c2ccc3c(N)n[nH]c3c2)cc(N2C[C@@H](C(=O)NC3CCCCC3)OC[C@H]2C)n1 [GSK2375584]")
18
>>> endpoint_result("CCCCc1nn2ncccc2c1-c1ccnc(NC2CC2)n1 [GW684374]")
0
>>> endpoint_result("Cc1ccc(NC(=O)Nc2ccc(Cl)c(C(F)(F)F)c2)cc1-c1ccc(C(=O)Nc2ccncc2)cc1 [GSK1398470]")
39
>>> endpoint_result("Nc1cccc(-c2ccc3c(N)n[nH]c3c2)n1 [GSK2192730]")
0
>>> endpoint_result("CC(=O)c1c(C)c2cnc(Nc3ccn(C)n3)nc2n(C2CCCC2)c1=O")
0
>>> endpoint_result("O=c1cc(N2CCOCC2)nc2n(Cc3ccccc3F)ccn12 [GSK2297428]")
0
>>> endpoint_result("CC(C)c1cc(-c2ccc3c(N)n[nH]c3c2)nc(N)n1 [GSK2250882]")
14
>>> endpoint_result("CSc1ccc(-c2nc3n(c2-c2ccncc2)CCC3)cc1 [SKF-105561]")
0
>>> endpoint_result("COc1ccc(Nc2nccc(-c3ccc(NC(=O)c4cc5cc(F)ccc5[nH]4)cc3)n2)cc1 [GSK1229496]")
0
>>> endpoint_result("COc1ccc2cc(-c3nc(-c4ccccc4C(C)C)[nH]c3-c3ccncc3)ccc2c1 [SB-660566]")
0
>>> endpoint_result("Cc1c(Cn2c(C)c(C)n3c(=O)cc(N4CCOCC4)nc23)cccc1C(F)(F)F [GSK2328680]")
91.2
>>> endpoint_result("CS(=O)(=O)Cc1ccc(Nc2nccc(-c3c(-c4cccc(NC(=O)C5CCCCC5)c4)nn4ncccc34)n2)cc1 [GSK350559]")
3
>>> endpoint_result("COc1cc2ncnc(Nc3cccc(Br)c3)c2cc1OC.Cl [GI230329]")
1
>>> endpoint_result("c1ccc(-c2ccnc3[nH]ccc23)cc1 [SB-693578]")
2
>>> endpoint_result("O=C1NC(=O)C(c2ccc(Cl)cc2)=C1Nc1ccc(O)cc1 [SB-340867]")
1
>>> endpoint_result("Cc1c(Cn2c3ccccc3n3c(=O)cc(N4CCOCC4)nc23)cccc1C(F)(F)F [GSK2306394]")
0
>>> endpoint_result("COc1ccc(Nc2nccc(N3CCC(NC(=O)c4cc5ccccc5s4)C3)n2)cc1 (stereo not shown) [GSK1379738]")
0
>>> endpoint_result("CCn1c(-c2c(N)noc2C)nc2cnccc21 [SB-737856]")
0
>>> endpoint_result("COc1cccc(CNC(=O)NC2CCN(c3ccnc(Nc4ccc(F)cc4)n3)C2)c1 (stereo not shown) [GSK1379723]")
0
>>> endpoint_result("O=C(Nc1n[nH]c2nc(-c3ccco3)c(Br)cc12)C1CCN(Cc2ccccc2)C1.O=C(O)[C@H](O)[C@@H](O)C(=O)O (stereo not shown) [SB-742034]")
2
